Kindly supply the reported TGI values for the records listed here.
- Test system: HOP-62 NSCLC
- assayComment: NCI tumour cell line growth inhibition, 48 h

compound: Cc1c(N2C(=O)/C(=C/c3ccc(Cl)cc3)N=C2c2ccccc2)c(=O)n(-c2ccccc2)n1C
measuredResult: > 100 µM

compound: COc1c(CC=C(C)C)c(O)c(C(CC(C)C)c2c(O)c3c(c(C(C)=O)c2O)OC(C(C)(C)O)C3)c(O)c1C(C)=O (stereo not drawn)
measuredResult: > 12.5 µM

Challenge: State the recorded TGI for this entry: `Cc1cc(S(=O)(=O)Nc2n[nH]c(Nc3ccc(Cl)cc3)n2)c(S)cc1Cl`
Response given: > 100 µM

---

- System: NCI/ADR-RES ovarian
- assayComment: NCI tumour cell line growth inhibition, 48 h
I'd appreciate it if you could supply TGI values for the items below.

The following molecules have reported results that may help.
molecule: O=c1[nH]c2nnc(COc3ccc(Cl)cc3Cl)n2nc1Cc1ccccc1
measuredResult: > 100 µM
//
molecule: NS(=O)(=O)c1ccc(Nc2cc(-c3cccc(O)c3)[nH]n2)cc1
measuredResult: > 25 µM
//
molecule: CN(C)c1ccc(C=Nc2ccc(-c3nc4ccccc4[nH]3)cc2)cc1
measuredResult: 27.7 µM

Field: TGI. Fill in for each record below.
1. CC(C)(CN1CCCCC1)C(=O)/C=C/c1ccc(/C=C/C(=O)C(C)(C)CN2CCCCC2)cc1
2. O=C1/C(=C\Oc2ccc(F)cc2)N2CCC1CC2
3. CC(=O)c1ccc2c(c1)c1cc(C(C)=O)ccc1n2CCNC(C)C
4. O=C1CSCc2sccc21
5. Nc1ncnc2c1sc1nc3ccccc3n12
6. Cc1cccc(N(C)C(=O)[C@@H]2[C@H](O)CCN2c2nc(C)cc(C(F)(F)F)c2C#N)c1

Response given:
2.36 µM
> 100 µM
8.09 µM
> 100 µM
> 100 µM
89.1 µM

---

- System: M14 melanoma
- assayComment: NCI tumour cell line growth inhibition, 48 h
metric: TGI

These solved cases illustrate the format of a correct answer.
molecule: c1cc(NNc2cccc(-c3nn[nH]n3)c2)cc(-c2nn[nH]n2)c1
TGI: > 100 µM

molecule: CC(C)(O)[C@@H]1CC[C@@]2(C)CCCC(O)C2(O)C1 (some centres not stated)
TGI: > 100 µM

molecule: COc1cc(/C=C\c2cc(OC)c(OC)c(OC)c2)cc(N/C=C\C(=O)c2ccc(OC(F)(F)F)cc2)c1OC
TGI: > 100 µM

molecule: COc1ccc2c(c1OC)C[C@@H]1c3c(cc4c(c3-2)OCO4)CCN1C
TGI: 84.8 µM

molecule: CCOC(=O)c1cc(C(=O)c2cc(OC)c(OC)c(OC)c2)n2ncccc12
TGI: > 100 µM

Each of the following entries comes with a recorded value; kindly state TGI for each.
1. Cc1ccccc1N=Nc1c(O)c(S(=O)(=O)O)cc2cc(S(=O)(=O)O)ccc12
2. CCOC(=O)c1c(N)n(-c2ccccc2)c(=O)n(-c2ccccc2)c1=O
3. O=C(Cc1ccc(/C=C/C(=O)c2ncc[nH]2)cc1)Nc1ccc(F)cc1
4. COc1ccc(N=Nc2c(C)c(C#N)c(=S)n(C3OC(CO)C(O)C(O)C3O)c2-c2ccccc2)cc1 (configuration not stated)

Response given:
["> 100 µM", "> 100 µM", "17.6 µM", "76.8 µM"]

Hi, could you look up TGI for each item in my list?
1. O=C(CC(=O)N1N=C(N2CCCCC2)CC1c1ccccc1)Nc1ccccc1 (configuration not stated)
2. COc1ccc(C2NC(=S)Nc3c2c(=O)oc2c3ccc3ccccc32)cc1 (configuration not stated)
3. CC(C)(C)OC(=O)n1c2ccccc2c2c(=O)nc(N3CCCCC3)sc21
4. COc1ccc(C2=N[C@@H](Cc3ccccc3)C(=O)Nc3ccsc32)cc1
5. CC1=CC(=O)CC(C)(C)C1/C=C/C(C)=C/C=C/C(C)=C/C=C/C=C(C)/C=C/C=C(C)/C=C/C1C(C)=CC(=O)CC1(C)C (configuration not stated)
6. CCN(Cc1ccc(C)cc1)c1ccc(CO)c(Cl)c1
7. C=CCn1c(-c2ccc([N+](=O)[O-])cc2)cs/c1=N\C(P(=O)(O)O)P(=O)(O)O
8. COc1ccc(/C=C/C(=O)c2cc(OC)c(OC)c(OC)c2)cc1OCC(=O)Nc1nc2ccc(OC(F)(F)F)cc2s1

Response given:
["> 100 µM", "> 100 µM", "> 100 µM", "12.6 µM", "> 100 µM", "23.7 µM", "> 100 µM", "4.52 µM"]

Give measured TGI for every item shown.
1. Fc1cccc(COc2ccc(Nc3ncnc4sc(-c5cccs5)cc34)cc2Cl)c1
2. COC(=O)c1n[nH]c(C)c1N=NN(C)CCC#N
3. NS(=O)(=O)c1ccc(Nc2cc(-c3cccc(O)c3)[nH]n2)cc1
4. CCOC(=O)c1nc2ccc(C(F)(F)F)cc2nc1NCc1ccc(OC)cc1
5. COC(=O)C1CCC(=O)N1CN(C(C)=O)c1ccccc1Cl (configuration not stated)

Response given:
1. > 25 µM
2. > 100 µM
3. > 25 µM
4. > 100 µM
5. > 100 µM

Each molecule below has a reported value. Please supply its TGI.
1. CC(NC(=O)/C(=C/c1ccccc1)NC(=O)c1ccccc1)C(=O)O (configuration not stated)
2. COC(=O)CC(NC(=O)OCc1ccccc1)C(C(C)=O)C(=O)OCc1ccccc1 (configuration not stated)
3. O=c1[nH]c(Nc2ccc(Cl)c(C(F)(F)F)c2)nc2nc[nH]c12
4. COc1cc(Nc2nc3cc(N)cc(N)c3nc2-c2ccccc2)cc(OC)c1OC
5. S=c1[nH]nc(CNc2ccc(-c3n[nH]c(=S)n3-c3ccc(Cl)cc3)cc2)n1-c1ccc(Cl)cc1

Response given:
1. > 100 µM
2. > 31.6 µM
3. > 100 µM
4. 44.9 µM
5. 68.1 µM
